Test system: MALME-3M melanoma
assay_name: NCI-60 one-dose screen, 48 h
condition_set: 10 µM unless noted
About 83,000 compounds went through this panel and 20% of them were active in at least one assay; those are over-represented in the sample as a whole. Activity calls are given as the source filed them. Rule for the calls: active = growth percent below 10; inactive = the rest.
Allowed answers: active, inactive

Worked set:
Record lookup: outcome of this test for `Cc1[nH]c(C(=O)Nc2ccccc2OCc2cccc(C(=O)N3CCC[C@@H](N)C3)c2)c(Cl)c1Cl` ?
active

Record lookup: outcome of this test for `Cc1occc1-c1nc2s/c(=C/c3ccc(-c4cc(C(F)(F)F)ccc4Cl)o3)c(=O)n2n1` ?
inactive

Record lookup: outcome of this test for `Cn1cc(CNc2nc3ccc(OC/C(=C/F)CN)cc3o2)ccc1=O` ?
inactive

Record lookup: outcome of this test for `CS(=O)(=O)Nc1cc(-c2ccc3ncc(C#N)c(NCc4ccccc4)c3c2)cnc1Cl` ?
active

Record lookup: outcome of this test for `NC/C(=C/F)COc1ccc2nc(NCc3cccnc3)oc2c1` ?
inactive

Record lookup: outcome of this test for CC1=CC(=O)C2=C(C)CC(OC(=O)CCc3ccccc3)[C@@H]3[C@H](OC(=O)[C@@H]3C)[C@@H]12 (stereo not given in full) ?
inactive

Record lookup: outcome of this test for Cc1ccc2sc3c(c2c1)OC(N)=C(C#N)C3c1ccc(Cl)cc1 (stereo not given) ?
inactive

Record lookup: outcome of this test for `CCOc1ccc(C(=O)Nc2ncc(Cc3ccc(F)cc3)s2)cc1` ?
inactive

Record lookup: outcome of this test for `COc1cc(-c2nn(C(C)(C)C)cc2-c2ccnc(NCCCNS(=O)(=O)c3ccc(C)cc3)n2)ccc1Cl` ?
inactive

Okay, next one:
Record lookup: outcome of this test for `CC(=O)c1cc(C(=O)c2ccc(Br)cc2)n2cc(C)cc(C)c12` ?
inactive
